As shown below, each of these compounds has a reported pIC50 value.
# Study Target: G1 APOL1 (Homo sapiens, UniProt O14791, I384M/S342G)
# Construct: expressed in transfected cells
# Sequence (O14791 28-398 S342G/I384M): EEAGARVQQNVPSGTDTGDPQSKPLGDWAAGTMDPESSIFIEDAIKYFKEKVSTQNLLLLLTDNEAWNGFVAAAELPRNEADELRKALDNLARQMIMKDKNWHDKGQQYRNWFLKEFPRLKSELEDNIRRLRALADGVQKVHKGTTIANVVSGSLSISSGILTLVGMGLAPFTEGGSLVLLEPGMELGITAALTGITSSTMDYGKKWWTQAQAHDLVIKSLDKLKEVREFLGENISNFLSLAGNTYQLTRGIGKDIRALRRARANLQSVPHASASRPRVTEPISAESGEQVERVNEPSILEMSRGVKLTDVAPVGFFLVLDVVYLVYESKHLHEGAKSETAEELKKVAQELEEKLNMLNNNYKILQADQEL
# Assay Explanation: Acute APOL1 Thallium Assay with Inducible Stable Clones of HEK 293 Cells
# Format: cell-based
# Reported Conditions: HEK 293 inducible stable clones, G1 APOL1; read-out: Thallium Assay (IC50)
pIC50: −log10 of the molar value.

Task item: Field: pIC50 (G1 APOL1 (Homo sapiens, UniProt O14791, I384M/S342G)). Entry: "O=C(CCc1c(-c2ccc(F)cc2)[nH]c2ccc(F)cc12)NCC1(O)CCC1"
Reply: < 6.00

Task item: Field: pIC50 (G1 APOL1 (Homo sapiens, UniProt O14791, I384M/S342G)). Entry: "O=C(N[C@H]1C[C@H](O)C1)OCCc1c(-c2ccc(F)cc2)[nH]c2c(F)cc(F)cc12"
Reply: 6.00 to 6.60

Task item: Field: pIC50 (G1 APOL1 (Homo sapiens, UniProt O14791, I384M/S342G)). Entry: "O=C(CCc1c(-c2ccc(F)cc2)[nH]c2ccc(F)cc12)Nc1cc[nH]n1"
Reply: 6.00 to 6.60

Let's switch to this compound now.
Task item: Field: pIC50 (G1 APOL1 (Homo sapiens, UniProt O14791, I384M/S342G)). Entry: "O=C1CC(C(=O)NCCc2c(-c3ccc(F)cc3)[nH]c3c(F)cc(F)cc23)CC(=O)N1"
Reply: < 6.00
